- Test system: NCI-H522 lung
- Protocol details: NCI-60 one-dose screen, 48 h (100 = growth as untreated, 0 = no growth, -100 = all killed)
- Applied conditions: 10 µM unless noted
The panel holds about 83,000 compounds, 20% with a hit somewhere; the sample as a whole holds those more often.
Metric: growth (%)
Answers are plain numbers, in %.

Take a look at these entries with their results.
Molecule	Tested system	Metric	Value units	Numeric readout
Nc1ncc(-c2ccc3ncnc(N4CCc5cc(F)c(Cl)cc54)c3c2)cc1CO	NCI-H522 lung	growth	%	-18
C#C[C@]1(O)CC[C@H]2[C@@H]3CC=C4c5sc(Nc6ccc(Cl)cn6)nc5CC[C@]4(C)[C@H]3CC[C@@]21C	NCI-H522 lung	growth	%	67.7
NS(=O)(=O)c1cccc(Nc2nc(SCC(=O)c3ccc(Br)cc3)nc3ccccc23)c1	NCI-H522 lung	growth	%	40.8
OC1CCc2c(-c3ccc4ncnc(N5CCc6cc(F)c(Cl)cc65)c4c3)cncc21 (centres undefined)	NCI-H522 lung	growth	%	40.1
COc1ccc(/C=N/Nc2ccnc3cc(Cl)ccc23)cc1Cl	NCI-H522 lung	growth	%	-73.7
C=C1CC[C@H]2[C@@](C)(CCC3OC(c4ccc(OCc5cn(C6CC(OC(C)=O)C(OC(C)=O)C(COC(C)=O)O6)nn5)cc4)OC[C@]32C)[C@@H]1/C=C/C1=CCOC1=O (some centres undefined)	NCI-H522 lung	growth	%	82.2
Nc1c(C(=O)Nc2ccc(C(F)(F)F)cc2)sc2nc(-c3cnccn3)cc(-c3cccs3)c12	NCI-H522 lung	growth	%	88.5
N#Cc1c(-c2ccc(Cl)cc2)nc(SCc2ccc([N+](=O)[O-])cc2)nc1N1CCNCC1	NCI-H522 lung	growth	%	64.1

Now for a further molecule.
Qu. Would you mind telling me what growth value was observed for Cc1cc2nc3c4cc(Cl)ccc4n(CC(=O)NCCN(C)C)c3nc2cc1C ?
Ans. 91.8
